- Tested on: DMS-114
- procedure.text: Growth inhibition of human DMS114 cells after 48 hrs by sulforhodamine B assay
- Format: functional
- condition.info: DMS-114, 48 h
readout.kind: log10 of GI50 (log10 of the value in nM)
Scale: log10; quantity: GI50; unit before log: nM

Some compounds with recorded log10 of GI50:
line.notation	log10 of GI50
CCCCCCCCCCCC[C@@H](O)[C@H]1CC[C@H]([C@H](O)CCCCCCCCCCCCc2ccnn2C)O1	2.74
CCCCCCCCCCCC[C@@H](O)[C@H]1CC[C@H]([C@H](O)CCCCCCCCCCNCc2ccnn2C)O1	2.11
CCCCCCCCCCCC[C@@H](O)[C@H]1CC[C@H]([C@H](O)CCCCCCCCCCC(=O)Nc2ccnn2C)O1	3.52
CCCCCCCCCCCC[C@@H](O)[C@H]1CC[C@H]([C@H](O)CCCCCCCCCCN(C)C(=O)c2ccnn2C)O1	1.54
CCCCCCCCCCCC[C@@H](O)[C@H]1CC[C@H]([C@H](O)CCCCCCCCCCOC(=O)c2ccnn2C)O1	2.61

Continue with the compound presented below.
Measured log10 of GI50, "CCCCCCCCCCCC[C@@H](O)[C@H]1CC[C@H]([C@H](O)CCCCCCCCCCCCC2=C[C@H](C)OC2=O)O1" : 3.63

----------
- System: MKN-45
- procedure.text: Growth inhibition of human MKN45 cells after 48 hrs by sulforhodamine B assay
- Assay type: functional
- condition.info: MKN-45, 48 h
Recorded measurements of GI50, one per entry

Some compounds with recorded GI50:
line.notation	GI50
CCCCCCCCCCCC[C@@H](O)[C@H]1CC[C@H]([C@H](O)CCCCCCCCCCCCC2=C[C@H](C)OC2=O)O1	> 100 µM
CCCCCCCCCCCC[C@@H](O)[C@H]1CC[C@H]([C@H](O)CCCCCCCCCCOC(=O)c2ccnn2C)O1	> 100 µM
CCCCCCCCCCCC[C@@H](O)[C@H]1CC[C@H]([C@H](O)CCCCCCCCCCCCc2ccnn2C)O1	> 100 µM
CCCCCCCCCCCC[C@@H](O)[C@H]1CC[C@H]([C@H](O)CCCCCCCCCCNCc2ccnn2C)O1	1.82 µM
CCCCCCCCCCCC[C@@H](O)[C@H]1CC[C@H]([C@H](O)CCCCCCCCCCC(=O)Nc2ccnn2C)O1	> 100 µM
CCCCCCCCCCCC[C@@H](O)[C@H]1CC[C@H]([C@H](O)CCCCCCCCCCN(C)C(=O)c2ccnn2C)O1	11 µM

Continue with the compound presented below.
Measured GI50, "CCCCCCCCCCCC[C@@H](O)[C@H]1CC[C@H]([C@H](O)CCCCCCCCCCNC(=O)c2ccnn2C)O1" : 7.41 µM

----------
- System: LOX IMVI
- procedure.text: Growth inhibition of human LOXIMVI cells after 48 hrs by sulforhodamine B assay
- Format: functional
readout.kind: GI50 (µM)
Give just the numeric value; µM need not be written.

Some compounds with recorded GI50:
line.notation	readout.kind	unit	recorded.value
CCCCCCCCCCCC[C@@H](O)[C@H]1CC[C@H]([C@H](O)CCCCCCCCCCOC(=O)c2ccnn2C)O1	GI50	µM	12.9
CCCCCCCCCCCC[C@@H](O)[C@H]1CC[C@H]([C@H](O)CCCCCCCCCCNCc2ccnn2C)O1	GI50	µM	1.2
CCCCCCCCCCCC[C@@H](O)[C@H]1CC[C@H]([C@H](O)CCCCCCCCCCN(C)C(=O)c2ccnn2C)O1	GI50	µM	1.41

Measured GI50, "CCCCCCCCCCCC[C@@H](O)[C@H]1CC[C@H]([C@H](O)CCCCCCCCCCCCC2=C[C@H](C)OC2=O)O1" : 28.8

----------
Recorded measurements of log10 of GI50, one per entry
- System: NCI-H23
- procedure.text: Growth inhibition of human NCI-H23 cells after 48 hrs by sulforhodamine B assay
- Format: functional
- condition.info: NCI-H23, 48 h
Scale: log10; quantity: GI50; unit before log: nM

Measured log10 of GI50, "CCCCCCCCCCCC[C@@H](O)[C@H]1CC[C@H]([C@H](O)CCCCCCCCCCNC(=O)c2ccnn2C)O1" : 1.72

Measured log10 of GI50, "CCCCCCCCCCCC[C@@H](O)[C@H]1CC[C@H]([C@H](O)CCCCCCCCCCNCc2ccnn2C)O1" : 2.81

----------
- Test system: NCI-H522
- procedure.text: Growth inhibition of human NCI-H522 cells after 48 hrs by sulforhodamine B assay
- Assay type: functional
- condition.info: NCI-H522, 48 h
# if measured GI50 < 4 µM: 1  # else: 0

line.notation	assigned.category
CCCCCCCCCCCC[C@@H](O)[C@H]1CC[C@H]([C@H](O)CCCCCCCCCCC(=O)Nc2ccnn2C)O1	0
CCCCCCCCCCCC[C@@H](O)[C@H]1CC[C@H]([C@H](O)CCCCCCCCCCCCc2ccnn2C)O1	1

In: Find out if reported GI50 for "CCCCCCCCCCCC[C@@H](O)[C@H]1CC[C@H]([C@H](O)CCCCCCCCCCNCc2ccnn2C)O1" is less than 4 µM
Out: 1

In: Find out if reported GI50 for "CCCCCCCCCCCC[C@@H](O)[C@H]1CC[C@H]([C@H](O)CCCCCCCCCCOC(=O)c2ccnn2C)O1" is less than 4 µM
Out: 0

In: Find out if reported GI50 for "CCCCCCCCCCCC[C@@H](O)[C@H]1CC[C@H]([C@H](O)CCCCCCCCCCNC(=O)c2ccnn2C)O1" is less than 4 µM
Out: 1

In: Find out if reported GI50 for "CCCCCCCCCCCC[C@@H](O)[C@H]1CC[C@H]([C@H](O)CCCCCCCCCCN(C)C(=O)c2ccnn2C)O1" is less than 4 µM
Out: 1

----------
- Tested on: DU-145
- procedure.text: Growth inhibition of human DU145 cells after 48 hrs by sulforhodamine B assay
- Assay type: functional
- condition.info: DU-145, 48 h
readout.kind: GI50

Measured GI50, "CCCCCCCCCCCC[C@@H](O)[C@H]1CC[C@H]([C@H](O)CCCCCCCCCCNC(=O)c2ccnn2C)O1" : > 100 µM

Measured GI50, "CCCCCCCCCCCC[C@@H](O)[C@H]1CC[C@H]([C@H](O)CCCCCCCCCCNCc2ccnn2C)O1" : 4.37 µM

Measured GI50, "CCCCCCCCCCCC[C@@H](O)[C@H]1CC[C@H]([C@H](O)CCCCCCCCCCN(C)C(=O)c2ccnn2C)O1" : 12.9 µM

Measured GI50, "CCCCCCCCCCCC[C@@H](O)[C@H]1CC[C@H]([C@H](O)CCCCCCCCCCOC(=O)c2ccnn2C)O1" : > 100 µM

Measured GI50, "CCCCCCCCCCCC[C@@H](O)[C@H]1CC[C@H]([C@H](O)CCCCCCCCCCCCc2ccnn2C)O1" : > 100 µM

Measured GI50, "CCCCCCCCCCCC[C@@H](O)[C@H]1CC[C@H]([C@H](O)CCCCCCCCCCCCC2=C[C@H](C)OC2=O)O1" : > 100 µM

Measured GI50, "CCCCCCCCCCCC[C@@H](O)[C@H]1CC[C@H]([C@H](O)CCCCCCCCCCC(=O)Nc2ccnn2C)O1" : > 100 µM

----------
- Tested on: OVCAR-8
- procedure.text: Growth inhibition of human OVCAR8 cells after 48 hrs by sulforhodamine B assay
- Assay type: functional
- condition.info: OVCAR-8, 48 h
readout.kind: GI50 (µM)
Give just the numeric value; µM need not be written.

line.notation	recorded.value
CCCCCCCCCCCC[C@@H](O)[C@H]1CC[C@H]([C@H](O)CCCCCCCCCCNCc2ccnn2C)O1	1.58
CCCCCCCCCCCC[C@@H](O)[C@H]1CC[C@H]([C@H](O)CCCCCCCCCCNC(=O)c2ccnn2C)O1	30.9

Measured GI50, "CCCCCCCCCCCC[C@@H](O)[C@H]1CC[C@H]([C@H](O)CCCCCCCCCCN(C)C(=O)c2ccnn2C)O1" : 6.03

----------
Recorded measurements of GI50, one per entry
- procedure.text: Growth inhibition of human BSY1 cells after 48 hrs by sulforhodamine B assay
- Assay type: functional
- condition.info: BSY-1, 48 h
Give just the numeric value; nM need not be written.

Some compounds with recorded GI50:
line.notation	unit	recorded.value
CCCCCCCCCCCC[C@@H](O)[C@H]1CC[C@H]([C@H](O)CCCCCCCCCCC(=O)Nc2ccnn2C)O1	nM	95500
CCCCCCCCCCCC[C@@H](O)[C@H]1CC[C@H]([C@H](O)CCCCCCCCCCCCc2ccnn2C)O1	nM	32400
CCCCCCCCCCCC[C@@H](O)[C@H]1CC[C@H]([C@H](O)CCCCCCCCCCN(C)C(=O)c2ccnn2C)O1	nM	501
CCCCCCCCCCCC[C@@H](O)[C@H]1CC[C@H]([C@H](O)CCCCCCCCCCOC(=O)c2ccnn2C)O1	nM	813

Continue with the compound presented below.
Measured GI50, "CCCCCCCCCCCC[C@@H](O)[C@H]1CC[C@H]([C@H](O)CCCCCCCCCCNCc2ccnn2C)O1" : 339
